# Tested on: HT-29 cells
# ASSAY REMARKS: Proliferation inhibition assay of cancer cells (Test Example 1), HT-29
# Type: cell-based, human
# MEASUREMENT SETUP: Homo sapiens, HT-29, 96 h, HT-29 cells, cultured for 4 days, Cell Titer-Glo; read-out: IC50 (μM) HT; concentration for 50% inhibition of cell proliferation (Bulk IC50 value)
Binning scheme for IC50: bottom bin = under 0.6 µM, middle bin = from 0.6 µM up to 0.7 µM, top bin = 0.7 µM and over

{"MOLECULE": "CC(O)c1cc2c(s1)C(=O)c1ncccc1C2=O (stereo not shown) [Example 37]", "LABEL": "middle bin"}
{"MOLECULE": "O=C1c2ccncc2C(=O)c2c(C(=O)N3CCOCC3)csc21 [Example 22]", "LABEL": "top bin"}

stdin: Could you place O=C1c2cnccc2C(=O)c2sc(CN(CC(F)F)C(=O)C3CCCCC3)cc21 [Example 28] in its proper category? Many thanks.
stdout: middle bin

stdin: Could you place CCN(CCOC)Cc1cc2c(s1)C(=O)c1ccncc1C2=O [Example 24] in its proper category? Many thanks.
stdout: middle bin

stdin: Could you place CCOC(=O)N(CC)Cc1cc2c(o1)C(=O)c1cccnc1C2=O [Example 11] in its proper category? Many thanks.
stdout: top bin

###

# Tested on: HT-29 cells
# ASSAY REMARKS: Proliferation inhibition assay of cancer cells (Test Example 1), HT-29
# Type: cell-based, human
# MEASUREMENT SETUP: Homo sapiens, HT-29, 96 h, HT-29 cells, cultured for 4 days, Cell Titer-Glo; read-out: IC50 (μM) HT; concentration for 50% inhibition of cell proliferation (Bulk IC50 value)
PROPERTY NAME: IC50 (µM)
Report the value in µM with no unit label.

{"COMPOUND": "CC1CNCC(C)(C(=O)c2cc3c(s2)C(=O)c2ncccc2C3=O)C1 (centres unmarked)", "TARGET OR TEST SYSTEM": "HT-29 cells", "MEASUREMENT UNITS": "µM", "IC50": 3.71}
{"COMPOUND": "CCN(Cc1cc2c(s1)C(=O)c1cccnc1C2=O)C1CCCCC1", "TARGET OR TEST SYSTEM": "HT-29 cells", "MEASUREMENT UNITS": "µM", "IC50": 0.92}
{"COMPOUND": "CC(=O)c1cc2c(o1)C(=O)c1cnccc1C2=O", "TARGET OR TEST SYSTEM": "HT-29 cells", "MEASUREMENT UNITS": "µM", "IC50": 0.62}
{"COMPOUND": "CC(F)c1cc2c(s1)C(=O)c1ccncc1C2=O (centres unmarked)", "TARGET OR TEST SYSTEM": "HT-29 cells", "MEASUREMENT UNITS": "µM", "IC50": 0.05}

From here, focus on the item given below.
stdin: Would you please give the reported IC50 of C[C@@H]1CN(C(=O)c2cc3c(s2)C(=O)c2nccnc2C3=O)C[C@H](C)O1 with HT-29 cells?
stdout: 7.06

###

List of IC50 values.
# System: HT-29 cells
# ASSAY REMARKS: Proliferation inhibition assay of cancer cells (Test Example 1), HT-29
# Type: cell-based, human
# MEASUREMENT SETUP: Homo sapiens, HT-29, 96 h, HT-29 cells, cultured for 4 days, Cell Titer-Glo; read-out: IC50 (μM) HT; concentration for 50% inhibition of cell proliferation (Bulk IC50 value)
Report the value in µM with no unit label.

{"COMPOUND": "CC(=O)c1cc2c(s1)C(=O)c1ccncc1C2=O", "EXPERIMENTAL VALUE": 0.18}

stdin: Hello, please tell me recorded IC50 for this one: O=C1c2cnccc2C(=O)c2sc(C(O)C3CC3)cc21 (stereo not drawn)
stdout: 0.58
